Each recorded value in this set is attributed to the supplement of paper PMC9938120.

# System: FMOC27 (patient-derived low-grade serous ovarian cancer cells)
# assaySummary: drug sensitivity score (DSS3, normalised partial AUC of % inhibition dose-response) (DSS (score)); higher = more sensitive (stronger inhibition of viability); extreme values may be limits of the assay
# conditionContext: 72 h; library: FO5A; assay format: 2D, 384-well, CellTiter-Glo
Would you kindly list drug sensitivity score for each of these compounds?

Param readout = drug sensitivity score; param system = FMOC27; param query = Nc1nc(NC2CC2)cc(-c2cccc(Cl)c2Cl)n1 ; response: value
2.3

Param readout = drug sensitivity score; param system = FMOC27; param query = CCCOc1ccn2c(C(C)=O)cc(-c3ccccc3S(C)(=O)=O)c2c1 ; response: value
0

Param readout = drug sensitivity score; param system = FMOC27; param query = CNC(=O)c1cc(COc2nnc(Nc3ccc(Cl)cc3)c3ccoc23)ccn1 ; response: value
0

Param readout = drug sensitivity score; param system = FMOC27; param query = Oc1ncnc2[nH]ncc12 ; response: value
0

Param readout = drug sensitivity score; param system = FMOC27; param query = CN1C(=O)N[C@H](Cc2c[nH]c3c(Cl)cccc23)C1=O ; response: value
0

* * *

Would you kindly list drug sensitivity score for each of these molecules?
# System: FMOC17 (patient-derived low-grade serous ovarian cancer cells)
# assaySummary: drug sensitivity score (DSS3, normalised partial AUC of % inhibition dose-response) (DSS (score)); higher = more sensitive (stronger inhibition of viability); extreme values may be limits of the assay
# conditionContext: 72 h; library: FO5A; assay format: 2D, 384-well, CellTiter-Glo
Reply: number alone, nothing else.

Which drug sensitivity score value belongs to COc1cc2c(Oc3ccc(NC(=O)C4(C(=O)Nc5ccc(F)cc5)CC4)cc3F)ccnc2cc1OCCCN1CCOCC1 ?
1.7

Which drug sensitivity score value belongs to CNCc1ccc(-c2[nH]c3cc(F)cc4c3c2CCNC4=O)cc1 ?
3.6

Which drug sensitivity score value belongs to CN1CCN(C2CCN(C(=O)Nc3cc(Oc4ccc(NC(=O)C5(C(=O)Nc6ccc(F)cc6)CC5)c(F)c4)ccn3)CC2)CC1 ?
0.2

Which drug sensitivity score value belongs to O=C(CCCCCCC(=O)Nc1ccc([C@H]2O[C@@H](CSc3nc(-c4ccccc4)c(-c4ccccc4)o3)C[C@@H](c3ccc(CO)cc3)O2)cc1)NO ?
0

Which drug sensitivity score value belongs to COc1cc(Nc2ncc(F)c(Nc3ccc4c(n3)N(COP(=O)(O)O)C(=O)C(C)(C)O4)n2)cc(OC)c1OC ?
3.4

Which drug sensitivity score value belongs to O=C(Nc1cccnc1)N1CCC(Cc2cccc(Oc3ccc(C(F)(F)F)cn3)c2)CC1 ?
1.6

Which drug sensitivity score value belongs to CCN1CCN(c2ccc(Nc3cc(N(C)C(=O)Nc4c(Cl)c(OC)cc(OC)c4Cl)ncn3)cc2)CC1 ?
0

Which drug sensitivity score value belongs to Cn1ncc(Cl)c1-c1cc(C(=O)N[C@H](CN)Cc2cccc(F)c2)sc1Cl ?
3

Which drug sensitivity score value belongs to CC1=C(/C=C/C(C)=C/C=C/C(C)=C/C(=O)O)C(C)(C)CCC1 ?
0

Which drug sensitivity score value belongs to CS(=O)(=O)c1ccc(-c2cnc(N)c(C(=O)Nc3ccccc3)n2)cc1 ?
0

Which drug sensitivity score value belongs to NC(=O)NO [Hydroxyurea] ?
1.1

Which drug sensitivity score value belongs to C[C@@H](C(=O)O)c1ccc(-c2ccccc2)c(F)c1 ?
0

Which drug sensitivity score value belongs to O=C(O)c1ccc(-c2c[nH]c3ncc(-c4ccccc4)cc23)cc1C1CCCC1 ?
0

Which drug sensitivity score value belongs to CCCC(CCC)C(=O)O ?
0

Which drug sensitivity score value belongs to CC#CC(=O)N1CCC[C@H]1c1nc(-c2ccc(C(=O)Nc3ccccn3)cc2)c2c(N)nccn12 ?
2.2

Which drug sensitivity score value belongs to C[C@@H]1C=C2C(=O)O[C@@H]3CC[C@H](C1)[C@]23O ?
5.8

Which drug sensitivity score value belongs to C[C@@H](Nc1cc(F)cc(F)c1)c1cc(C(=O)N(C)C)cc2c(=O)cc(N3CCOCC3)oc12 ?
4.9
